Data origin: the supplement of paper PMC7214452

test system: SU-DHL2 (cancer type: DLBCL); test: normalized area under the dose-response curve (viability relative to DMSO control) (fraction); higher = less sensitive (more viable cells); details: exposure time not given
VALUE TYPE: normalized area under the dose-response curve
Just the number.

Sample answers from the record:
Item under review: COC(=O)c1ccc2c(c1)NC(=O)/C2=C(\Nc1ccc(N(C)C(=O)CN2CCN(C)CC2)cc1)c1ccccc1 [Nintedanib] . Reported normalized area under the dose-response curve?
0.966

Next compound: COc1cc(Nc2c(C#N)cnc3cc(OCCCN4CCN(C)CC4)c(OC)cc23)c(Cl)cc1Cl [Bosutinib]
0.836

Next compound: COc1cc(N2CCC(N3CCN(C)CC3)CC2)ccc1Nc1ncc(Cl)c(Nc2ccccc2P(C)(C)=O)n1 [Brigatinib]
0.936

New cases:
Item under review: Cc1ccc(C(=O)Nc2ccc(CN3CCN(C)CC3)c(C(F)(F)F)c2)cc1C#Cc1cnc2cccnn12 [Ponatinib] . Reported normalized area under the dose-response curve?
0.797

Next compound: Cc1ccc(-n2nc(C(C)(C)C)cc2NC(=O)Nc2ccc(OCCN3CCOCC3)c3ccccc23)cc1 [Doramapimod]
0.901

Next compound: Cc1nc(Nc2ncc(C(=O)Nc3c(C)cccc3Cl)s2)cc(N2CCN(CCO)CC2)n1 [Dasatinib]
0.894

----------
test system: JJN3 (cancer type: MM); test: normalized area under the dose-response curve (viability relative to DMSO control) (fraction); higher = less sensitive (more viable cells); details: exposure time not given
Structures can show the parent of a compound that is named as a salt.
As shown below, each of these compounds has a reported normalized area under the dose-response curve value.
Just the number.

Sample answers from the record:
Item under review: Cc1cccc(/C=N/Nc2cc(N3CCOCC3)n3nc(-c4ccncc4)cc3n2)c1 . Reported normalized area under the dose-response curve?
0.311

Next compound: Cc1ccc(C(=O)Nc2ccc(CN3CCN(C)CC3)c(C(F)(F)F)c2)cc1C#Cc1cnc2cccnn12
0.344

Next compound: N#CC[C@H](C1CCCC1)n1cc(-c2ncnc3[nH]ccc23)cn1
0.894

New cases:
Item under review: COc1cc(N2CCC(N3CCN(C)CC3)CC2)ccc1Nc1ncc(Cl)c(Nc2ccccc2P(C)(C)=O)n1 . Reported normalized area under the dose-response curve?
0.527

Next compound: Cc1ccc(Nc2nccc(N(C)c3ccc4c(C)n(C)nc4c3)n2)cc1S(N)(=O)=O [Pazopanib hydrochloride]
0.628

Next compound: Cc1sc2c(c1C)C(c1ccc(Cl)cc1)=N[C@@H](CC(=O)Nc1ccc(O)cc1)c1nnc(C)n1-2
0.568

Next compound: C=CC(=O)N1CCC[C@@H](n2nc(-c3ccc(Oc4ccccc4)cc3)c3c(N)ncnc32)C1
0.728

Next compound: COc1cc(Nc2ncc3c(n2)-c2ccc(Cl)cc2C(c2c(F)cccc2OC)=NC3)ccc1C(=O)O
0.919

Next compound: C#Cc1cccc(Nc2ncnc3cc(OCCOC)c(OCCOC)cc23)c1 [Erlotinib hydrochloride]
0.878

Next compound: CC(C)C[C@H](NC(=O)[C@H](Cc1ccccc1)NC(=O)c1cnccn1)B(O)O
0.343

Next compound: COc1nc(N)nc2c1ncn2[C@@H]1O[C@H](CO)[C@@H](O)[C@@H]1O
0.987

----------
system: OCI-MY5 (cancer type: MM); assay: normalized area under the dose-response curve (viability relative to DMSO control) (fraction); higher = less sensitive (more viable cells); conditions: exposure time not given
As shown below, each of these compounds has a reported normalized area under the dose-response curve value.
Just the number.

Sample answers from the record:
Item under review: COc1nc(N)nc2c1ncn2[C@@H]1O[C@H](CO)[C@@H](O)[C@@H]1O . Reported normalized area under the dose-response curve?
0.98

Next compound: C[C@@H]1C[C@H]2[C@@H]3CCC4=CC(=O)C=C[C@]4(C)[C@@]3(F)[C@@H](O)C[C@]2(C)[C@@]1(O)C(=O)CO
0.725

Next compound: Nc1nc(F)nc2c1ncn2[C@@H]1O[C@H](COP(=O)(O)O)[C@@H](O)[C@@H]1O [Fludarabine phosphate]
0.788

Next compound: C/C=C1\NC(=O)[C@H]2CSSCC/C=C/[C@H](CC(=O)N[C@H](C(C)C)C(=O)N2)OC(=O)[C@H](C(C)C)NC1=O
0.13

Next compound: CCCS(=O)(=O)Nc1ccc(F)c(C(=O)c2c[nH]c3ncc(-c4ccc(Cl)cc4)cc23)c1F
0.788

Next compound: N#CC[C@H](C1CCCC1)n1cc(-c2ncnc3[nH]ccc23)cn1
0.853

Next compound: CO[C@H]1C[C@@H]2CC[C@@H](C)[C@@](O)(O2)C(=O)C(=O)N2CCCC[C@H]2C(=O)O[C@H]([C@H](C)C[C@@H]2CC[C@@H](OC(=O)C(C)(CO)CO)[C@H](OC)C2)CC(=O)[C@H](C)/C=C(\C)[C@@H](O)[C@@H](OC)C(=O)[C@H](C)C[C@H](C)/C=C/C=C/C=C/1C
0.775

Next compound: CC(=O)Nc1cccc(-n2c(=O)n(C3CC3)c(=O)c3c(Nc4ccc(I)cc4F)n(C)c(=O)c(C)c32)c1
0.764

Next compound: COc1cc(C(=O)O)ccc1NC(=O)[C@@H]1N[C@@H](CC(C)(C)C)[C@](C#N)(c2ccc(Cl)cc2F)[C@H]1c1cccc(Cl)c1F
0.834

Next compound: CCN(CC)CCNC(=O)c1c(C)[nH]c(/C=C2\C(=O)Nc3ccc(F)cc32)c1C
0.576

New cases:
Item under review: Cc1ccc(NC(=O)c2ccc(CN3CCN(C)CC3)cc2)cc1Nc1nccc(-c2cccnc2)n1 . Reported normalized area under the dose-response curve?
0.793

Next compound: CNC(=O)c1cc(Oc2ccc(NC(=O)Nc3ccc(Cl)c(C(F)(F)F)c3)c(F)c2)ccn1
0.468

Next compound: CC(C)(O)CNc1nc(Nc2ccnc(C(F)(F)F)c2)nc(-c2cccc(C(F)(F)F)n2)n1
0.723

----------
tested on: Karpas-299 (cancer type: TCL); test: normalized area under the dose-response curve (viability relative to DMSO control) (fraction); higher = less sensitive (more viable cells); conditions: exposure time not given
As shown below, each of these compounds has a reported normalized area under the dose-response curve value.
Just the number.

Item under review: CC(=O)Nc1cccc(-n2c(=O)n(C3CC3)c(=O)c3c(Nc4ccc(I)cc4F)n(C)c(=O)c(C)c32)c1 . Reported normalized area under the dose-response curve?
0.794

Next compound: COc1cc2/c(=N/c3ccc(Br)cc3F)nc[nH]c2cc1OCC1CCN(C)CC1
0.896

Next compound: COc1cc(C(=O)O)ccc1NC(=O)[C@@H]1N[C@@H](CC(C)(C)C)[C@](C#N)(c2ccc(Cl)cc2F)[C@H]1c1cccc(Cl)c1F
0.86

Next compound: Nc1ncn([C@H]2C[C@H](O)[C@@H](CO)O2)c(=O)n1
0.912

Shift focus to the following entry.
Item under review: CCc1cnn2c(NCc3ccc[n+]([O-])c3)cc(N3CCCC[C@H]3CCO)nc12 . Reported normalized area under the dose-response curve?
0.0458

----------
As shown below, each of these compounds has a reported normalized area under the dose-response curve value.
test system: My-La (cancer type: TCL); assay: normalized area under the dose-response curve (viability relative to DMSO control) (fraction); higher = less sensitive (more viable cells); conditions: exposure time not given
Where a name gives a salt, the structure may show the parent alone.
Just the number.

Item under review: CNC(=O)c1cc(Oc2ccc(NC(=O)Nc3ccc(Cl)c(C(F)(F)F)c3)cc2)ccn1 . Reported normalized area under the dose-response curve?
0.836

Next compound: CN(C)C/C=C/C(=O)Nc1cc2c(Nc3ccc(F)c(Cl)c3)ncnc2cc1O[C@H]1CCOC1
0.74

Next compound: COc1cc(C(=O)O)ccc1NC(=O)[C@@H]1N[C@@H](CC(C)(C)C)[C@](C#N)(c2ccc(Cl)cc2F)[C@H]1c1cccc(Cl)c1F
0.937

Next compound: Cc1nc(Nc2ncc(C(=O)Nc3c(C)cccc3Cl)s2)cc(N2CCN(CCO)CC2)n1
0.841

Next compound: CC(=O)Nc1cccc(-n2c(=O)n(C3CC3)c(=O)c3c(Nc4ccc(I)cc4F)n(C)c(=O)c(C)c32)c1
0.868

Next compound: CC1(COc2ccc3c(c2)ncn3-c2ccc3cccc(N4CCC(N)CC4)c3n2)COC1
0.779

New cases:
Item under review: CNC(=O)c1cc(Oc2ccc(NC(=O)Nc3ccc(Cl)c(C(F)(F)F)c3)c(F)c2)ccn1 . Reported normalized area under the dose-response curve?
0.84

Next compound: Nc1nc(Cl)nc2c1ncn2[C@H]1C[C@H](O)[C@@H](CO)O1
0.813

Next compound: O=C(/C=C/c1cccc(S(=O)(=O)Nc2ccccc2)c1)NO
0.506

Next compound: CC(C)(C)c1nc(-c2cccc(NS(=O)(=O)c3c(F)cccc3F)c2F)c(-c2ccnc(N)n2)s1 [Dabrafenib mesylate]
0.908

----------
test system: NCI-H929 (cancer type: MM); test: normalized area under the dose-response curve (viability relative to DMSO control) (fraction); higher = less sensitive (more viable cells); settings: exposure time not given
As shown below, each of these compounds has a reported normalized area under the dose-response curve value.

Item under review: C/C=C1\NC(=O)[C@H]2CSSCC/C=C/[C@H](CC(=O)N[C@H](C(C)C)C(=O)N2)OC(=O)[C@H](C(C)C)NC1=O [Romidepsin] . Reported normalized area under the dose-response curve?
0.09

Next compound: CNC(=O)c1cc(Oc2ccc(NC(=O)Nc3ccc(Cl)c(C(F)(F)F)c3)c(F)c2)ccn1 [Regorafenib]
0.56

Next compound: Cc1sc2c(c1C)C(c1ccc(Cl)cc1)=N[C@@H](CC(=O)Nc1ccc(O)cc1)c1nnc(C)n1-2 [otx-015]
0.54

Next compound: CC(=O)O[C@H]1C(=O)[C@@]2(C)[C@H]([C@H](OC(=O)c3ccccc3)[C@]3(O)C[C@H](OC(=O)[C@H](O)[C@@H](NC(=O)c4ccccc4)c4ccccc4)C(C)=C1C3(C)C)[C@]1(OC(C)=O)CO[C@@H]1C[C@@H]2O [Paclitaxel]
0.49

Next compound: COc1cc(Nc2c(C#N)cnc3cc(OCCCN4CCN(C)CC4)c(OC)cc23)c(Cl)cc1Cl [Bosutinib]
0.8
